target-of-assay: Ubiquitin carboxyl-terminal hydrolase 30 (Homo sapiens) (UniProt Q70CQ3)
Sequence (Q70CQ3 whole entry, looked up): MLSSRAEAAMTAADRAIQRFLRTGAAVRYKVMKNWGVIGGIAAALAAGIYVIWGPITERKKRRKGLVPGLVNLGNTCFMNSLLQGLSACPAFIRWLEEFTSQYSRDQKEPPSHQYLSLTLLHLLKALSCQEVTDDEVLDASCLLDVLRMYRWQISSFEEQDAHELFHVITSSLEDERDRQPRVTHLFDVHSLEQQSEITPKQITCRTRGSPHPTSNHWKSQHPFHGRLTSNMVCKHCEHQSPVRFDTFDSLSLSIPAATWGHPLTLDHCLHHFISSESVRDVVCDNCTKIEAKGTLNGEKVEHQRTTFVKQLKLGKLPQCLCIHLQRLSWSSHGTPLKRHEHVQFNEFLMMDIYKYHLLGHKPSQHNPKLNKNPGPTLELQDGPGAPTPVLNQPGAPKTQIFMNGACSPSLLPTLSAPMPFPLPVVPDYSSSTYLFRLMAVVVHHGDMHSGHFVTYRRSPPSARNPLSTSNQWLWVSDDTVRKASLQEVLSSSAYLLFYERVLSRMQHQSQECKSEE
protocol-description: inhibitors of ubiquitin-specific protease 30 deubiquitylating enzyme, concentration dependence, in vitro biochemical, validation of primary hits (AID 1645865)
assay-conditions: purified USP30, Ub-rhodamine cleavage, fluorescence, 2 h
Calls of active or inactive are those of the source.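 The calls were made as follows: active = maximal inhibition of the USP30 enzyme reaching 30% or more across the dose series; inactive = the rest.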
Classes used: t for active, f for inactive

| test-smiles | target-of-assay | group |
| --- | --- | --- |
| Cc1ccc(NC(=O)Cn2cc(S(=O)(=O)N3CCCC3)ccc2=O)cc1 | Ubiquitin carboxyl-terminal hydrolase 30 (Homo sapiens) (UniProt Q70CQ3) | t |
| O=C(COC(=O)CCc1ccc(S(=O)(=O)N2CCOCC2)cc1)Nc1ccc2c(c1)OCCO2 | Ubiquitin carboxyl-terminal hydrolase 30 (Homo sapiens) (UniProt Q70CQ3) | f |
| Cc1nn(CC(=O)Nc2ccc(Br)c3cccnc23)c(=O)c2ccccc12 | Ubiquitin carboxyl-terminal hydrolase 30 (Homo sapiens) (UniProt Q70CQ3) | f |
| CCOCCCn1c(SCC(=O)Nc2ccccc2C(F)(F)F)nc2ccccc2c1=O | Ubiquitin carboxyl-terminal hydrolase 30 (Homo sapiens) (UniProt Q70CQ3) | t |
| Cc1ccc2c(=O)c(C(=O)Nc3ccccc3)cn(CC(=O)NC3CCCCC3)c2n1 | Ubiquitin carboxyl-terminal hydrolase 30 (Homo sapiens) (UniProt Q70CQ3) | t |

* * *

target-of-assay: Ubiquitin carboxyl-terminal hydrolase 30 (Homo sapiens) (UniProt Q70CQ3)
protocol-description: inhibitors of ubiquitin-specific protease 30 deubiquitylating enzyme, concentration dependence, in vitro biochemical, validation of primary hits (AID 1645865)
assay-conditions: purified USP30, Ub-rhodamine cleavage, fluorescence, 2 h
Active and inactive are the calls of the source.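 How the source made its calls: active means maximal inhibition of the USP30 enzyme reaching 30% or more across the dose series; inactive means the rest.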
Classes used: YES (active), NO (inactive)

| compound | target-of-assay | group |
| --- | --- | --- |
| O=c1c2ccccc2c(-c2nc(-c3ccncc3)no2)cn1-c1ccccc1 | Ubiquitin carboxyl-terminal hydrolase 30 (Homo sapiens) (UniProt Q70CQ3) | YES |
| Cc1c(C)n(-c2ccccc2)c2ncn(CC(=O)NCCCc3ccccc3)c(=O)c12 | Ubiquitin carboxyl-terminal hydrolase 30 (Homo sapiens) (UniProt Q70CQ3) | YES |
| Cc1ccc2c(c1)c(=O)c(C(=O)c1ccccc1)cn2CC(=O)Nc1ccccc1 | Ubiquitin carboxyl-terminal hydrolase 30 (Homo sapiens) (UniProt Q70CQ3) | YES |
| O=C(Cn1ncc2c(N3CCCCCC3)ncnc21)NCc1ccccc1 | Ubiquitin carboxyl-terminal hydrolase 30 (Homo sapiens) (UniProt Q70CQ3) | NO |
| CCOC(=O)N1CCN(S(=O)(=O)c2ccc(C(=O)Nc3ccc(Br)cc3)cc2)CC1 | Ubiquitin carboxyl-terminal hydrolase 30 (Homo sapiens) (UniProt Q70CQ3) | YES |
| COc1ccc(NC(=O)c2cc(-c3cccnc3)n[nH]2)cc1Cl | Ubiquitin carboxyl-terminal hydrolase 30 (Homo sapiens) (UniProt Q70CQ3) | YES |
| COCCNC(=O)c1cc(-c2cn(-c3ccccn3)c(C)n2)n2ccccc12 | Ubiquitin carboxyl-terminal hydrolase 30 (Homo sapiens) (UniProt Q70CQ3) | NO |
| COc1ccc(-n2cc(C(=O)NCc3ccc4c(c3)OCO4)c3ccccc3c2=O)cc1 | Ubiquitin carboxyl-terminal hydrolase 30 (Homo sapiens) (UniProt Q70CQ3) | YES |
| O=C(NCc1ccc(F)cc1)C1CCCN(c2cnc3nccnc3c2)C1 (stereo unspecified) | Ubiquitin carboxyl-terminal hydrolase 30 (Homo sapiens) (UniProt Q70CQ3) | NO |
| Cc1cc(C(=O)Nc2ccc3nc(N4CCN(c5ncccn5)CC4)cc(C)c3c2)ccc1[N+](=O)[O-] | Ubiquitin carboxyl-terminal hydrolase 30 (Homo sapiens) (UniProt Q70CQ3) | YES |
| Cc1nc2cccnc2n1C1CCN(C(=O)c2cc3cc(Cl)ccc3[nH]2)C1 (stereo unspecified) | Ubiquitin carboxyl-terminal hydrolase 30 (Homo sapiens) (UniProt Q70CQ3) | NO |
| COc1ccc(CN2CCCC23CCCN(C(=O)CCc2cccnc2)C3)cc1F (stereo unspecified) | Ubiquitin carboxyl-terminal hydrolase 30 (Homo sapiens) (UniProt Q70CQ3) | YES |
| COc1cccc(CN2CCc3nc4nc(C)ccc4cc3C2)c1 | Ubiquitin carboxyl-terminal hydrolase 30 (Homo sapiens) (UniProt Q70CQ3) | NO |
| CN(Cc1ccccc1)S(=O)(=O)c1ccc2[nH]cc(C(=O)NCc3cccs3)c(=O)c2c1 | Ubiquitin carboxyl-terminal hydrolase 30 (Homo sapiens) (UniProt Q70CQ3) | YES |
| CCOC(=O)c1c(C)nc2n(Cc3ccccc3)c3ccccc3n12 | Ubiquitin carboxyl-terminal hydrolase 30 (Homo sapiens) (UniProt Q70CQ3) | YES |
| Cc1cccc(NC(=O)Cn2cnc(-c3noc(-c4ccccc4)n3)c2)c1C | Ubiquitin carboxyl-terminal hydrolase 30 (Homo sapiens) (UniProt Q70CQ3) | YES |
| Cn1c(=O)[nH]c(=O)c2c1nc1n(CCc3ccccc3)c(-c3ccccc3)cn21 | Ubiquitin carboxyl-terminal hydrolase 30 (Homo sapiens) (UniProt Q70CQ3) | YES |
| CCc1cc(=O)n(CC(=O)Nc2cc(C)ccc2OC)c(N2CCOCC2)n1 | Ubiquitin carboxyl-terminal hydrolase 30 (Homo sapiens) (UniProt Q70CQ3) | YES |
| O=C(Nc1ccncc1)c1ncoc1-c1cccc(Cl)c1 | Ubiquitin carboxyl-terminal hydrolase 30 (Homo sapiens) (UniProt Q70CQ3) | YES |
| Cc1nc(N2CCCC2)ncc1-c1cc(=O)[nH]c(N2CCc3ccccc3C2)n1 | Ubiquitin carboxyl-terminal hydrolase 30 (Homo sapiens) (UniProt Q70CQ3) | YES |
| CC(=O)c1ccccc1NC(=O)COc1ccc(-c2ccc(C#N)cc2)cc1 | Ubiquitin carboxyl-terminal hydrolase 30 (Homo sapiens) (UniProt Q70CQ3) | YES |

* * *

target-of-assay: Ubiquitin carboxyl-terminal hydrolase 30 (Homo sapiens)
protocol-description: inhibitors of ubiquitin-specific protease 30 deubiquitylating enzyme, concentration dependence, in vitro biochemical, validation of primary hits (AID 1645865)
assay-conditions: purified USP30, Ub-rhodamine cleavage, fluorescence, 2 h
Active and inactive are the calls of the source.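 How the source made its calls: active means maximal inhibition of the USP30 enzyme reaching 30% or more across the dose series; inactive means the rest.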
Classes used: TRUE for active, FALSE for inactive

| test-smiles | target-of-assay | group |
| --- | --- | --- |
| O=C(Nc1ccc(Cl)cc1F)c1cc(-c2ccccn2)n[nH]1 | Ubiquitin carboxyl-terminal hydrolase 30 (Homo sapiens) | TRUE |
| COC(=O)c1ccc2c(=O)n(CCCCCC(=O)NCCc3ccc(S(N)(=O)=O)cc3)c(=O)[nH]c2c1 | Ubiquitin carboxyl-terminal hydrolase 30 (Homo sapiens) | TRUE |
| Cc1ccccc1-c1nc(CN(C)S(=O)(=O)c2ccccc2)c(C)o1 | Ubiquitin carboxyl-terminal hydrolase 30 (Homo sapiens) | TRUE |
| Cc1ccc(NC(=O)Cc2nnc3c(-c4nc(C5CC5)no4)cccn23)cc1 | Ubiquitin carboxyl-terminal hydrolase 30 (Homo sapiens) | TRUE |
| COc1ccc(NC(=O)CNC(=O)c2ccc3nc(-n4cccc4)sc3c2)cc1 | Ubiquitin carboxyl-terminal hydrolase 30 (Homo sapiens) | TRUE |
| CSc1ccc(CNCc2c(C(=O)O)n(Cc3ccccc3)c3cc(C)ccc23)cc1 | Ubiquitin carboxyl-terminal hydrolase 30 (Homo sapiens) | FALSE |
| Cc1ccccc1Cn1cc(SCC(=O)Nc2ccc3c(c2)OCCO3)c2ccccc21 | Ubiquitin carboxyl-terminal hydrolase 30 (Homo sapiens) | FALSE |
| COc1ccc(NC(=O)C2CCN(c3cncnc3N(C)C)CC2)cc1OC | Ubiquitin carboxyl-terminal hydrolase 30 (Homo sapiens) | FALSE |
| COc1cccc(CCNC(=O)CCn2c(=O)c(C)nc3cc(C)c(C)cc32)c1 | Ubiquitin carboxyl-terminal hydrolase 30 (Homo sapiens) | FALSE |
| CN(C)S(=O)(=O)c1ccc(N2CCCC2)c(C(=O)Nc2ccc(-c3cn4ccsc4n3)cc2)c1 | Ubiquitin carboxyl-terminal hydrolase 30 (Homo sapiens) | FALSE |

* * *

target-of-assay: Ubiquitin carboxyl-terminal hydrolase 30 (Homo sapiens)
protocol-description: inhibitors of ubiquitin-specific protease 30 deubiquitylating enzyme, concentration dependence, in vitro biochemical, validation of primary hits (AID 1645865)
assay-conditions: purified USP30, Ub-rhodamine cleavage, fluorescence, 2 h
Calls of active or inactive are those of the source.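 The calls were made as follows: active = maximal inhibition of the USP30 enzyme reaching 30% or more across the dose series; inactive = the rest.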
Classes used: 1 for active, 0 for inactive

| molecule | group |
| --- | --- |
| COc1ccccc1NC(=O)Nc1ccc(NC(=O)c2ccccc2O)cc1 | 1 |
| Cc1ccc2[nH]c(=O)c(CN(Cc3cccnc3)C(=O)c3cccc(Cl)c3)cc2c1 | 0 |
| O=C(COC(=O)C1CCCN1C(=O)C12CC3CC(CC(C3)C1)C2)c1ccc(Cl)cc1 (stereo not given) | 1 |
| Cc1cc(C)n(-c2ccc(C(=O)NCc3ccc(F)cc3)cn2)n1 | 1 |
| CCOc1ccc(N2C(=O)c3ccccc3C2C(=O)NCc2ccccc2OC)cc1 (stereo not given) | 1 |

* * *

target-of-assay: Ubiquitin carboxyl-terminal hydrolase 30 (Homo sapiens) (UniProt Q70CQ3)
protocol-description: inhibitors of ubiquitin-specific protease 30 deubiquitylating enzyme, concentration dependence, in vitro biochemical, validation of primary hits (AID 1645865)
assay-conditions: purified USP30, Ub-rhodamine cleavage, fluorescence, 2 h
The source made the active and inactive calls.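 How the source made its calls: active means maximal inhibition of the USP30 enzyme reaching 30% or more across the dose series; inactive means the rest.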
Classes used: T = active, F = inactive

| test-smiles | group |
| --- | --- |
| CC(=O)c1ccc(NC(=O)C[n+]2cc(-c3ccc(Cl)cc3)n3c2CCC3)cc1 | F |
| COc1ccc(C)cc1NC(=O)CSc1nc(C)nc2c1oc1ccccc12 | T |
| Cc1cccc(NC(=O)CN2C(=O)COc3cc(S(=O)(=O)N4CCCC4)ccc32)c1C | T |
| Cc1cccc(OCCn2c(CCNC(=O)C3CCCCC3)nc3ccccc32)c1 | T |
| CCc1ccc(Nc2cc(C(=O)NCCCOC(C)C)c3ccccc3n2)cc1 | T |
| CCn1cc(-c2cc(C(=O)Nc3cnn(Cc4cccc(F)c4)c3)c3ccccc3n2)cn1 | T |
| O=c1c2cnc(N3CCOCC3)nc2ccn1CCc1ccccc1 | T |
| COc1ccc(-c2cc(C(=O)NC3CCCCCC3)[nH]n2)cc1S(=O)(=O)N(C)C | T |
| Cc1ccc2cc3c(nc2n1)CCN(Cc1ccc(F)cc1)C3 | F |
| CC1=C[C@H]2N(c3ccc(C)cc31)[C@H](C(=O)c1cccs1)[C@@H](C(=O)c1ccc(F)cc1)[C@]21C(=O)Nc2ccccc21 | F |
